biological target: Intestinal-type alkaline phosphatase (Homo sapiens) (UniProt P09923); experiment: blockers of intestinal alkaline phosphatase activity – biochemical, luminescence, uHTS, primary screen (AID 2544); conditions: purified IAP, CDP-Star luminescence, 30 min; at 10 µM; active compounds read high;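 note: plate controls were DMSO wells with enzyme for no effect and no-enzyme buffer wells for full effect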
Sequence (P09923 whole entry, looked up): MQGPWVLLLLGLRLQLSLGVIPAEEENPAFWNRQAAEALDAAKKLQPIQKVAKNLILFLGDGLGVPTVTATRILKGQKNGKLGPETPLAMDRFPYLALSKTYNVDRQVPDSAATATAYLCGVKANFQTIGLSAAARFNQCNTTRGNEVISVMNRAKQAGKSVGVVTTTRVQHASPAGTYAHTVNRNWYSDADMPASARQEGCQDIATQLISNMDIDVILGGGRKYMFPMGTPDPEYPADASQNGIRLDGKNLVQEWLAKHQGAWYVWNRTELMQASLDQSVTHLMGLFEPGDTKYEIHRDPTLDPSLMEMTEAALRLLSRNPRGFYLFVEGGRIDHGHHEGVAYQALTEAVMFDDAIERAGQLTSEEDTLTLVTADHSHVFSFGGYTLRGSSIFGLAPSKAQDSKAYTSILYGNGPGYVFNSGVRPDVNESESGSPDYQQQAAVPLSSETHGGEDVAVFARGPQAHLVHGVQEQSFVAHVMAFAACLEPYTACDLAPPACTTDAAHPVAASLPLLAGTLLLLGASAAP
The whole screen tested about 330,000 compounds, of which about 390 (0.12%) were called active. For the sample, actives were picked, then their nearest neighbours and some compounds at random.
The entries below are paired with their reported inhibition.
metric: inhibition (%)

1) Cc1cc(N)n2nc(-c3ccc(C(C)(C)C)cc3)cc2n1 : -9
2) CCOC(=O)c1ccc(NC(=O)CCn2c(=O)oc3ccccc32)cc1 : -9.6
3) CC(=O)c1ccc(N2CCN(CC(=O)Nc3ccccc3N3CCOCC3)CC2)cc1 : 6.2
4) CS(=O)(=O)c1sc(C(=O)NC(=S)Nc2ccc(OC(F)(F)F)cc2)c2c1C=CCC2 : -34.5
5) Cc1c(C(=O)OC(C)C)sc(NC(=O)c2cccnc2)c1C#N : -1.7
6) CC(C)C[C@H](NC(=O)[C@@H]1O[C@H]1C(=O)O)C(=O)NCCCCN=C(N)N : 14.6
7) COc1ccccc1C(=O)OCC(=O)Nc1cccc(S(=O)(=O)NC2=NCCCCC2)c1 : 19.2
8) CCC(C)C(=O)Nc1ccccc1N1CCN(c2ccc(F)cc2)CC1 (stereo not drawn) : 42.4
9) Cc1noc(C)c1COc1ccccc1C(=O)N(C)CC(=O)Nc1cccc(F)c1 : -9.4
10) CCOC(=O)c1cn[nH]c1NC(=S)Nc1ccccc1 : 60.8
11) O=C(O)CCn1c(O)c(C=C2N=c3ccccc3=N2)sc1=S : -32.1
12) CCc1ccccc1NC(=S)N(CCN1CCCCCC1)Cc1ccco1 : -3.8
13) O=C(CN1CCC(NC(=O)C2CC2)CC1)Nc1ccccc1[N+](=O)[O-] : 1.9
14) COc1ccc(-c2nc3cc(C)ccn3c2NC2CCCCC2)cc1SC1CCCCC1 : 18.9
15) CCCCC(=O)Nc1ccccc1N1CCN(c2ccc(F)cc2)CC1 : -6.3
16) CN=C1SC(CC(=O)Nc2ccc(C(=O)O)cc2)C(=O)N1C (stereo not drawn) : 15.6
17) COCCNC(=O)/C(C#N)=C/c1cccc(OCc2ccccc2)c1 : 1.1
18) CN(Cc1ccccc1Cl)C(=O)C1CCC(=O)N(CCc2cccc(F)c2)C1 (stereo not drawn) : -4.4
19) CCOC(=O)c1cc2c(nc1NC(=S)Nc1ccccc1)CC(C)(CC)OC2 (stereo not drawn) : -6.3
20) COc1ccc(CNC(=O)/C(C#N)=C/c2cccc(OC)c2OC)cc1 : -1.8
21) OCCC#Cc1ccc(CN2CCN(Cc3ccsc3)C(CCO)C2)cc1 (stereo not drawn) : 12.2
22) CCc1c(C)nc(N)n2c(SCC(=O)NC3CCCCC3)nnc12 : -2.5
23) COC(=O)c1ccc(COC(=O)c2cnccn2)cc1 : 21.3
